The reported numbers originate from patent EP4786492A1.

# tested_target: human DLL3 protein expressed on CHO-K1 recombinant cells (human DLL3 extracellular segment fused to EpCAM transmembrane and intracellular regions) (human) (UniProt Q9NYJ7)
# Sequence (Q9NYJ7 other isoform, or with tags, fused parts or gaps limits assumed): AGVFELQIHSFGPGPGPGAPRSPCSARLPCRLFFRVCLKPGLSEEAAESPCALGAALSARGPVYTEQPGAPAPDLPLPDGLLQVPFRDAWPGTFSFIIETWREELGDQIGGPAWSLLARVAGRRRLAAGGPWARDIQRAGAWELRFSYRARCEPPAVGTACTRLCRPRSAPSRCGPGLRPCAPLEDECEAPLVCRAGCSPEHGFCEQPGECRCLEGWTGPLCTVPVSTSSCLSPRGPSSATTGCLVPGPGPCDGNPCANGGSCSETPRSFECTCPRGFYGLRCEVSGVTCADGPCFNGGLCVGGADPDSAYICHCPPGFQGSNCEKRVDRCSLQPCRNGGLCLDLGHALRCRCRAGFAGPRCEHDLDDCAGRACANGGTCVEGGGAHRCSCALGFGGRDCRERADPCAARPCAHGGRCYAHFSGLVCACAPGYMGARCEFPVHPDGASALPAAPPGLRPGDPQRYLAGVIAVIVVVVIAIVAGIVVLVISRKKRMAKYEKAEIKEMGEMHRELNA
# test: FACS, CHO-K1 hDLL3 cells, 0.00128 nM antibody
Answer each item with its documented MFI.
Your answer is read as MFI, so omit the unit and give the number.

q: Output measured MFI for this item: Hab014VL3VH1-hFc (scFv, part only; not given: VL-VH linker and human IgG1 Fc, V domains shown, not shown: another chain or arm of the molecule; a dimerising Fc or GST; small tags and cut ends) VL: DIVMTQSPDSLAVSLGERATINCKASEDIYNRLAWYQQKPGQTPKLLISGATSLETGVPDRFSGSGSGKDFTLTISSLQAEDVAVYYCQQYWSLPWTFGGGTKVEIK VH: EVQLVQSGAEVKKPGASVKVSCKASGYTFTDYYMNWVRQAPGQRLEWMGDINPNHGDTGYNQKFTGRVTITVDKSASTAYMELSSLRSEDTAVYYCARNFFYYGTTYGWYFDVWGQGTTVTVSS
a: 207

q: Output measured MFI for this item: Hab015VL5VH1a-hFc (scFv, part only; not given: scFv linker and human IgG1 Fc, V domains shown, not shown: another chain or arm of the molecule; a dimerising Fc or GST; small tags and cut ends) VL: NIQMTQSPSSLSASVGDRVTITCKASENVGTYVSWYQQKPGKSPKLLIYGASNRYTGVPSRFSGSGSGTDFTLTISSLQPEDFATYYCGQFYSFPSTFGGGTKVEIK VH: EVQLVESGGGLVKPGGSLRLSCAASGITFSNFWMNWVRQAPGKGLEWVGQIRLKSDDYATHYAESVKGRFTISREDSKNTVYLQMNSLKTEDTAVYYCTTGYYFDYWGQGTTVTVSS
a: 129

q: Output measured MFI for this item: Hab015VL5VH5a-hFc (scFv, part only; not given: scFv linker and human IgG1 Fc, V domains shown, not shown: another chain or arm of the molecule; a dimerising Fc or GST; small tags and cut ends) VL: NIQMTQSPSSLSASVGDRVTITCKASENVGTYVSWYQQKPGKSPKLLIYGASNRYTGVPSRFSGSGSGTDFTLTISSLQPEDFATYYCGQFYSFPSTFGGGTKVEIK VH: EVQLVESGGGLVKPGGSLRLSCVASGITFSNFWMNWVRQAPGKGLEWVGQIRLKSDDYATHYAESVKGRFTISREDSKNTVYLQMNSLKTEDTAVYYCTTGYYFDYWGQGTTVTVSS
a: 134

q: Output measured MFI for this item: Hab008L3H2a-hFc (scFv, part only; not given: VL-VH linker and human IgG1 Fc, V domains shown, not shown: another chain or arm of the molecule; a dimerising Fc or GST; small tags and cut ends) VL: DIVMTQSPDSLAVSLGERATINCKASQNVGTAVAWYQQKPGQSPKLLIFSASIRYTGVPDRFSGSGSGTDFTLTISSLQAEDVAVYYCQQYSSSPYTFGGGTKVEIK VH: EVQLVQSGAEVKKPGASVKVSCKASGYTFTDYYMNWVRQAPGQRLEWMGIINPYNSGTSYNQKFRGRVTLTVDKSASTAYMELSSLRSEDTAVYYCSRYDYDYDVEGAMDYWGQGTTVTVSS
a: 98

q: Output measured MFI for this item: Hab014VL2VH1-hFc (scFv, part only; not given: scFv linker and human IgG1 Fc, V domains shown, not shown: another chain or arm of the molecule; a dimerising Fc or GST; small tags and cut ends) VL: DIQMTQSPSSLSASVGDRVTITCKASEDIYNRLAWYQQKPGKVPKLLISGATSLETGVPSRFSGSGSGKDFTLTISSLQPEDVATYYCQQYWSLPWTFGGGTKVEIK VH: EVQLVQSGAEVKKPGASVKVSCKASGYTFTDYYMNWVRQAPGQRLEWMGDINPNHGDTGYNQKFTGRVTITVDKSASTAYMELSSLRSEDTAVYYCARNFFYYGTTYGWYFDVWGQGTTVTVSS
a: 231
